- study.target: GST-DLG1 PDZ domain 1 (Homo sapiens), Q12959
- assay.remarks: G assay titration, PDZ 0.5 ug/ml
property.name: pKd
In plain terms, pKd is the concentration in mol/L turned into minus its base-10 logarithm.

Can you look up the measured pKd of VGTLLLERVIFPSVKIATLV (modifications not checked) [AdenoE4 typ9] for me?
7.00
